experiment_summary: NCI Yeast Anticancer Drug Screen. Data for the rad50 strain (AID 155);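 note: 0% = growth of vehicle-only cultures of the same strain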
test_settings: S. cerevisiae rad50 strain growth inhibition; at 50.0 µM; active compounds read high
Compounds without any hit were thinned out: in the full panel of roughly 79,000, 15% have a hit.
quantity: growth inhibition (%)
One number for each entry, in %.

Sample answers from the record:
Query: What value of growth inhibition has been reported for the following molecule? "COc1cc(C2=N/C(=C\c3cc(Cl)cc(Cl)c3O)C(=O)O2)cc(OC)c1OC"
Reply: -33.7

Query: Query (molecule): "CC(=O)C1=C(O)/C(=C/c2ccccc2)NC1=O" ; field requested: growth inhibition
Reply: 8.05

Query: Any idea what growth inhibition was measured for CCCCC1(C(NC(=O)c2ccccc2Cl)c2ccncc2)C(=O)N(c2ccccc2)N(c2ccccc2)C1=O (configuration not stated) ?
Reply: 33.8

Your task in this section: give growth inhibition for each listed record.
1. O=C(Cc1ccc(Cl)cc1)c1ccccc1Cl
2. CC(=O)OC(Cc1ccc2ccccc2n1)(C(F)(F)F)C(F)(F)F
3. COC(=O)CCc1cc(=O)oc2c3c(cc(OC)c12)OC1OC(=O)CC31 (configuration not stated)
4. O=C(O)C(Cc1c[nH]c2ccccc12)N1C(=O)c2ccccc2C1=O (configuration not stated)

Reply:
2.8
-17.6
-24
18.5
